Entry source: paper PMC7997411

molecular target: UniProt P14780
Sequence (P14780 94-707): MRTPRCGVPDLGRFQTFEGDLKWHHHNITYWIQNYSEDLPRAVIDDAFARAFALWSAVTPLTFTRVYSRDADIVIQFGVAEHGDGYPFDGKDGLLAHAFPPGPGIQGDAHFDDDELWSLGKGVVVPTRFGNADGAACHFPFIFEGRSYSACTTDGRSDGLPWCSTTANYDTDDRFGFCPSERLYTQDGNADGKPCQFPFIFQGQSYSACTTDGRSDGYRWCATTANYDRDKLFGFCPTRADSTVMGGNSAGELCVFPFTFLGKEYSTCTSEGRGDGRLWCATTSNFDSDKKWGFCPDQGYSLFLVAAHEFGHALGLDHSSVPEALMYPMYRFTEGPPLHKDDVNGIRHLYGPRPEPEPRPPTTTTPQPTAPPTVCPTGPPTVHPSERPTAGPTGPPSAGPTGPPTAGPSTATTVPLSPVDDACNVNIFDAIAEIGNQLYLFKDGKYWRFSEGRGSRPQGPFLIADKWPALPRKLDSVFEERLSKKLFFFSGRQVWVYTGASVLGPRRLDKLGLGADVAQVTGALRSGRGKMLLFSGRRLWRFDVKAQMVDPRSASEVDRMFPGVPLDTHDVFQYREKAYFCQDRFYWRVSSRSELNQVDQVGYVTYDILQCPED
Experimental Readout: IC50 (µM)
Give just the number in µM; leave the unit off.

Item under review: CCCCC[C@H](CC(=O)NO)C(=O)N[C@H](C(=O)N1CCC[C@H]1CO)C(C)C [Actinonin, actinonin, reference compound] . Reported IC50?
0.1

###

target: human meprin β (Homo sapiens); construct: His-tag; made in house; host or cells: BTI-TN-5B1-4 insect cells (baculovirus, amplified in Sf9); assay: Meprin β assay in a 384-well plate (fluorogenic substrate Mca-EDEDED-K(Dnp)); format: biochemical; conditions: triplicate, ± SD
Sequence (Q16820 62-701): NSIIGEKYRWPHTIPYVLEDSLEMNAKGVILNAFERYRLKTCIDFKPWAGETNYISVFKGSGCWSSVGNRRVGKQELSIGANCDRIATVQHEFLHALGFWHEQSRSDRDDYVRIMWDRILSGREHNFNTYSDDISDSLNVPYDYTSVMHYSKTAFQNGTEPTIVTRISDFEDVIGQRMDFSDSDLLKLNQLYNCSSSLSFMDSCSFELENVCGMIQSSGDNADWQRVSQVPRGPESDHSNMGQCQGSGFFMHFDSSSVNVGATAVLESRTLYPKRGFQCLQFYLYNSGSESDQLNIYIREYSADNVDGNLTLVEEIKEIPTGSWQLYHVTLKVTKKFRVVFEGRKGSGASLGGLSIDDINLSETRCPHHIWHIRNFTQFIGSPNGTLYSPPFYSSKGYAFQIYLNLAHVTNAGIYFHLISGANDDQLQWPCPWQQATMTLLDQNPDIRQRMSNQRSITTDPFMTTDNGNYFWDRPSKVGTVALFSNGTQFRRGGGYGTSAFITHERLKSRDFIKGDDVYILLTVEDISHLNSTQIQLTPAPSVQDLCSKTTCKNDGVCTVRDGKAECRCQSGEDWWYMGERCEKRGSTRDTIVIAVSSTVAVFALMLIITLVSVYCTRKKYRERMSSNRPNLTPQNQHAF
Recorded pIC50 by entry
Give only the number. pIC50 is defined as minus log10 of concentration in molar units.

| Compound | pIC50 |
| --- | --- |
| COc1cccc(-n2c(CSc3nc(OC)cc(OC)n3)nnc2SCC(=O)NO)c1 | 4.23 |

Endpoint output: pIC50 of CCCCC[C@H](CC(=O)NO)C(=O)N[C@H](C(=O)N1CCC[C@H]1CO)C(C)C [Actinonin, actinonin, reference compound] . Value?
5.32

Quick check: pIC50 of COc1ccc(-n2c(CSc3nc(C)cc(C)n3)nnc2SCC(=O)NO)cc1 ?
4.22

Given the entry CCN(CC)c1ccc(-n2c(CSc3nc(OC)cc(OC)n3)nnc2SCC(=O)NO)cc1 , report its measured pIC50.
4.12
